B1: CDC25B (parent)
chain: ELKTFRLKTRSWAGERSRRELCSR

Variants of: B1
Assay: protein stability index of a GFP-peptide fusion (GPS, HEK-293T) (PSI 1-6); higher = more stable;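 further: lentivirally expressed fusions sorted by FACS into six bins by GFP to DsRed ratio, PSI derived from sequencing read proportions per bin multiplied by bin number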
Settings: c terminus: a fixed tail appended
Answer each item with its documented protein stability index.
Numbers only.

Variant id: K8P
protein stability index: 2.77
//
Variant id: R10C
protein stability index: 2.94
//
Variant id: G14Y
protein stability index: 2.05
//
Variant id: A13T
protein stability index: 3.1
//
Variant id: K8R
protein stability index: 5.09

# map each variant to its protein stability index
1. S17K
2. K3F
3. L2P
4. R18N
5. L7V
6. S23M
7. S23Q

1: 2.77; 2: 1.61; 3: 3.89; 4: 3.18; 5: 3.33; 6: 3.26; 7: 3.39

I have 5 variants here; please give me protein stability index for each one.
1. R16L
2. A13R
3. W12E
4. T9W
5. E20A

1: 2.91; 2: 3.49; 3: 4.2; 4: 1.54; 5: 3.25

Take each entry in turn and give its protein stability index.
1. E20G
2. W12N
3. E20D

1: 2.65; 2: 3.45; 3: 2.98

Hi there! I need protein stability index for each item below, if you can.
1. C22D
2. T4Y
3. K3P
4. L2I
5. K3A

[3.27, 3.27, 3.42, 3.17, 2.92]

Batch request: protein stability index for each of the following variants.
1. W12C
2. R18D

2.87
3.4

Consider the following items and state reported protein stability index for each.
1. G14H
2. R24N

2.65
3.38

For every listed record, write down its protein stability index.
1. G14T
2. R19A
3. R24C
4. E15Y
5. S11H
6. S17W
7. G14C

3.53
4.2
2.9
2.46
1.95
2.16
2.5

Batch request: protein stability index for each of the following variants.
1. R10V
2. K8Q
3. G14L

2.45
3.34
2.61

Measured values drawn from the supplement of paper PMC10567573 for this set.
